STUDY TARGET: UniProt Q9UHL4
pIC50: −log10 of the molar value.

{"columns": ["COMPOUND", "pIC50"],
 "data": [
  ["NCCCCC(N)C(=O)N1CCSC1 (stereo unspecified)", 5.52]
]}

###

Observed IC50 for Dipeptidyl peptidase 4 (Homo sapiens), reported per entry below.

{"columns": ["COMPOUND", "SIGN", "IC50 / µM"],
 "data": [
  ["CCC(C)C(N)C(=O)N(C)C (configuration not stated)", "=", 360],
  ["N=C(N)NCCCC(N)C(=O)N1CCCCC1 (configuration not stated)", "=", 18.1],
  ["CCC(C)C(N)C(=O)N(CC)CC (configuration not stated)", ">", 500],
  ["NC(CO)C(=O)N1CCCCC1 (configuration not stated)", "=", 67],
  ["CCC(C)C(N)C(=O)N1CCC1 (configuration not stated)", "=", 50.4],
  ["CCC(C)C(N)C(=O)N1CCC(OC(=O)c2ccccc2)C1 (configuration not stated)", ">", 500],
  ["CCC(N)C(=O)N1CCCCC1 (configuration not stated)", "=", 250]
]}
